Listing of entries alongside the reported % Inhibition of PAF-induced bronchoconstriction.
Test system: PAF-induced bronchoconstriction
Assay: Effect on platelet activating factor (PAF)-induced bronchoconstriction in guinea pig (Konzett-Roessler method)
Format: in vivo
Settings: 1 mg/kg, P.O., one hour before PAF (1 µg/kg i.v.); male Hartley guinea pigs
Experimental: Male Hartley guinea pigs (body weights about 500 g) were used. Bronchoconstriction induced by PAF (1 µg/kg i.v.) in guinea pigs was measured according to the method of Konzett-Roessler. The guinea pig immobilized in the dorsal position, tracheotomy was anesthetized with urethane (1.5 g/kg i.v.) and the trachea was connected through a cannula to a respirator. […] The volume of overflow air was recorded on a rectigraph (Recte-Hori-8S, San-ei Sokki) through the brancho transducer. […]
Just the number in %, nothing appended.

Some solved cases for reference:
CCc1cc2ncnn2nc1OCC(C)(C)CS(N)(=O)=O [Example 1] : 70
CC(C)(COc1nn2ncnc2cc1C(C)(C)C)CS(N)(=O)=O [Example 6] : 43
CC(C)c1cc2ncnn2nc1OCC(C)(C)CS(N)(=O)=O [Example 3] : 72

// query Tell me % Inhibition of PAF-induced bronchoconstriction reported for CCC(CC)(COc1nn2ncnc2cc1C(C)C)CS(N)(=O)=O [Example 4]
// result 60

// query Assign % Inhibition of PAF-induced bronchoconstriction to the following record: CCCc1cc2ncnn2nc1OCC(C)(C)CS(N)(=O)=O [Example 2]
// result 67
